Data provenance is ChEMBL document CHEMBL1147708.

Test: Plasma concentration in CD1 mouse at 5 mg/kg, po after 8 hrs co-administered with 3-[6-(2-dimethylamino- 1-imidazol-1-yl-butyl)-naphthalen-2-yloxy]- 2,2-dimethyl-propionic acid at 10 mg/kg, po
Assay type: ADME, organism-based
MEASURED_QUANTITY: concentration at 8 h (nM)
Just the number in nM, nothing appended.

Could you please provide reported concentration at 8 h for CC1=C(/C=C/C(C)=C/C=C/C(C)=C/C(=O)O)C(C)(C)CCC1 ? Thanks!
2730

###

# Lookup of reported bioavailability keyed by entry
Experiment: Bioavailability in CD1 mouse
Settings: in vivo
Report the value in % with no unit label.

chemical_string=CC[C@H]([C@@H](c1ccc2cc(OCC(C)(C)C(=O)O)ccc2c1)n1ccnc1)N(C)C measured_quantity=bioavailability recorded_value=73
chemical_string=C[C@H]([C@@H](c1ccc2cc(OCC3(C(=O)O)CCCCC3)ccc2c1)n1ccnc1)N(C)C measured_quantity=bioavailability recorded_value=99
chemical_string=CCN(C)[C@H](C)[C@@H](c1ccc2cc(OCC3(C(=O)O)CCCC3)ccc2c1)n1ccnc1 measured_quantity=bioavailability recorded_value=99

Please examine the following record next.
Quote bioavailability reported for C[C@H]([C@@H](c1ccc2cc(OCC3(C(=O)O)CCCC3)ccc2c1)n1ccnc1)N(C)C please.
77

###

Test: Plasma concentration in CD1 mouse at 5 mg/kg, po after 2 hrs
Assay type: ADME, organism-based
Design: dose 5 mg/kg, route oral
MEASURED_QUANTITY: concentration at 2 h
Answer with the figure and its unit, nothing else.

Identify concentration at 2 h associated with the molecule CC1=C(/C=C/C(C)=C/C=C/C(C)=C/C(=O)O)C(C)(C)CCC1
5.24 µM

###

Assay: Plasma concentration in CD1 mouse at 5 mg/kg, po after 2 hrs co-administered with 3-[6-(2-dimethylamino- 1-imidazol-1-yl-butyl)-naphthalen-2-yloxy]- 2,2-dimethyl-propionic acid at 10 mg/kg, po
Assay type: ADME, organism-based
MEASURED_QUANTITY: concentration at 2 h (µM)
Provide the reading as a plain figure in µM.

Could you please provide reported concentration at 2 h for CC1=C(/C=C/C(C)=C/C=C/C(C)=C/C(=O)O)C(C)(C)CCC1 ? Thanks!
7.72

###

Target: Cytochrome P450 26A1 (Homo sapiens)
Sequence (O43174 whole entry): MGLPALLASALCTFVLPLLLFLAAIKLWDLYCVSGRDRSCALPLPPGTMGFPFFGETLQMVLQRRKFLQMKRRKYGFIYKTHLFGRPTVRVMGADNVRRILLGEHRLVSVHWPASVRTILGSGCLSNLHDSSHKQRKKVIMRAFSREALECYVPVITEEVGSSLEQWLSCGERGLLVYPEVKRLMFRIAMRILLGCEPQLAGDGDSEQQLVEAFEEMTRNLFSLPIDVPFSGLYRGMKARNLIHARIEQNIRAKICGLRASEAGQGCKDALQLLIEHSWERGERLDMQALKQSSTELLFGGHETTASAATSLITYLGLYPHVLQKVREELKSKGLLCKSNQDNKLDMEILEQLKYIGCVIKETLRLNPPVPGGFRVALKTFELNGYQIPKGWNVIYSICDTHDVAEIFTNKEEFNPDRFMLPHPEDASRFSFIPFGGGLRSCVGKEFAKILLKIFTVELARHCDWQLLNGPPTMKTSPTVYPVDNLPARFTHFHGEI
Test: Inhibition of CYP26 expressed in human T47D cell line
MEASURED_QUANTITY: IC50 (nM)
Give your result in nM as a bare value.

These recorded examples may help you get a feel for the data.
chemical_string=CCN(C)[C@H](C)[C@@H](c1ccc2cc(OCC(C)(C)C(=O)O)ccc2c1)n1ccnc1 unit_abbrev=nM recorded_value=9
chemical_string=C[C@H]([C@@H](c1ccc2cc(OCC3(C(=O)O)CCCC3)ccc2c1)n1ccnc1)N(C)C unit_abbrev=nM recorded_value=7.3

Read the next record carefully.
Let me know recorded IC50 for C[C@H]([C@@H](c1ccc2cc(OCC3(C(=O)O)CCCCC3)ccc2c1)n1ccnc1)N(C)C , thanks.
11.2
